# TEST_SYSTEM: IGF-1R (Homo sapiens, UniProt P08069)
# Construct: expressed in transfected cells
# Sequence (P08069 31-1367): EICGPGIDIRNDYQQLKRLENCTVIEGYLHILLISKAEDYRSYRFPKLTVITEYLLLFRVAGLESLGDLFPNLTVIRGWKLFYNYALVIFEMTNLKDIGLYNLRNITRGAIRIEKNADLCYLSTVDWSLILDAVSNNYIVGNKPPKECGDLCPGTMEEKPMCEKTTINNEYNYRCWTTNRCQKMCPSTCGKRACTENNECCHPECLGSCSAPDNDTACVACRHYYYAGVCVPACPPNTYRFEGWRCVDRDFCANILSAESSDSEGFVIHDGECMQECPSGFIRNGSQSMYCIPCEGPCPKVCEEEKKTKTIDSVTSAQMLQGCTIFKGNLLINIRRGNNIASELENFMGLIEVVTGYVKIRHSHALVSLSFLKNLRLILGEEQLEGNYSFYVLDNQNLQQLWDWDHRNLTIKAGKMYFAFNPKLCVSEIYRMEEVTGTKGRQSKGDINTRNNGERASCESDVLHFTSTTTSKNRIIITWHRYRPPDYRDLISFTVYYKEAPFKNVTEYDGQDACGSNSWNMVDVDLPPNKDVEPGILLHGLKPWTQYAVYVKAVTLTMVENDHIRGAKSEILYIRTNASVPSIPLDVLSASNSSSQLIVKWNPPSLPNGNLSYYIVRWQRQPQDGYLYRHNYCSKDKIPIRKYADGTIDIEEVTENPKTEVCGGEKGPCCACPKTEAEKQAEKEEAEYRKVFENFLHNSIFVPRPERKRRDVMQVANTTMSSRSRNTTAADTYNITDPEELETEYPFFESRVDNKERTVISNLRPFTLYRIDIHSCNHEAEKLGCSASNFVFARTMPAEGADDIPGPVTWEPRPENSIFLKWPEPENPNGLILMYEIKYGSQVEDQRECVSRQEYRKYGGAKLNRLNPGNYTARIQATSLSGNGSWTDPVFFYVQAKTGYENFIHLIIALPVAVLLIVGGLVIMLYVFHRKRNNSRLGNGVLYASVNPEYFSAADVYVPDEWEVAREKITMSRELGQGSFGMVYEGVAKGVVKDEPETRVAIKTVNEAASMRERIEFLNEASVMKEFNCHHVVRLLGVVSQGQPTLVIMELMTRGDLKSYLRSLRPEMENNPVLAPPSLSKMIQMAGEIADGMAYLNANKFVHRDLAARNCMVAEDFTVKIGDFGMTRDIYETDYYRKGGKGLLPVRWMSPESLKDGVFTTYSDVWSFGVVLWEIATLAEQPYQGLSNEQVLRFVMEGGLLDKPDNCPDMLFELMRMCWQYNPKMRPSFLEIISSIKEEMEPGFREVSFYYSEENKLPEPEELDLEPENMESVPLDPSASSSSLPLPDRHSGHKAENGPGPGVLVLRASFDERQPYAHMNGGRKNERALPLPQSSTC
# PROCEDURE_DETAILS: Example B-2: IGF-1R Assay (PathHunter cell lines, EC80 agonist challenge, chemiluminescent detection)
# Type: cell-based
# TEST_CONDITIONS: PathHunter cells, compound 60 minutes at 37° C., EC80 agonist 3 hours; read-out: IC50, Biological Activity against IGF-1R (Table B2)
pIC50: −log10 of the molar value.
ENDPOINT: pIC50

Please give the measured pIC50 for this compound: CC(C)(C#N)Nc1cc(CN2C(=O)N(c3ccc(C4(C(F)(F)F)CC4)cc3)C(=O)C2(C)C)ccn1 [Compound 109] ≥ 6.30

Look at this compound and give its reported pIC50. C[C@@H](CC#N)Nc1cc(CN2C(=O)N(c3ccc4c(c3)N(S(C)(=O)=O)CC43CCC3)C(=O)C2(C)C)ccn1 [Compound 221] ≥ 6.30

# lookup: pIC50 of CO[C@@H](C)CNc1cc(CN2C(=O)N(c3ccc4c(c3)N(S(C)(=O)=O)CC43CCC3)C(=O)C2(C)C)ccn1 [Compound 238] ≥ 6.30

Quick check: pIC50 of CC1(C)C(=O)N(c2ccc(OC(F)(F)F)cc2)C(=O)N1Cc1ccnc2c1CC(=O)N2 [Compound 285] ? 5.70 to 6.30

Quick one: pIC50 of CC1(C)C(=O)N(c2ccc(S(=O)(=O)C(F)(F)F)cc2)C(=O)N1Cc1ccnc(NC2CS(=O)(=O)C2)c1 [Compound 327] ? 5.00 to 5.70

Look at this compound and give its reported pIC50. CC1(C)C(=O)N(c2ccc(C3(C(F)(F)F)CC3)cc2)C(=O)N1Cc1ccnc(N[C@H]2CCCOC2)c1 [Compound 121] ≥ 6.30

If you can, please state the reported pIC50 value of CC1(C)C(=O)N(c2ccc(C3(C(F)(F)F)CC3)cc2)C(=O)N1Cc1ccnc(NCc2cn[nH]c2)c1 [Compound 171] . ≥ 6.30

* * *

# TEST_SYSTEM: IGF-1R (Homo sapiens)
# Construct: expressed in transfected cells
# PROCEDURE_DETAILS: Example B-2: IGF-1R Assay (PathHunter cell lines, EC80 agonist challenge, chemiluminescent detection)
# Assay type: cell-based
# TEST_CONDITIONS: PathHunter cells, compound 60 minutes at 37° C., EC80 agonist 3 hours; read-out: IC50, Biological Activity against IGF-1R (Table B2)
ENDPOINT: IC50

Please report the recorded IC50 for CC1(C)C(=O)Nc2nccc(CN3C(=O)N(c4ccc(SC(F)(F)F)cc4)C(=O)C3(C)C)c21 . ≤ 500 nM

Requested field: IC50. Item: CC(CS(C)(=O)=O)Nc1cc(CN2C(=O)N(c3ccc(C4(C(F)(F)F)CC4)cc3)C(=O)C2(C)C)ccn1 (stereo not drawn) 500 to 2000 nM

Which value of IC50 has been reported for CC1(C)C(=O)N(c2ccc(C(F)(F)F)c(C#N)c2)C(=O)N1Cc1ccnc2c1CC(=O)N2 in the records? > 10000 nM

Record request: IC50 value, item CC(C)(C)C(=O)Oc1cc2c(CN3C(=O)N(c4ccc(C5(C(F)(F)F)CC5)cc4)C(=O)C3(C)C)ccnc2[nH]1 ≤ 500 nM

Any idea what IC50 was measured for CC1(C)C(=O)N(c2ccc(C3(C(F)(F)F)CC3)cc2)C(=O)N1Cc1ccnc(NCc2nnc[nH]2)c1 ? ≤ 500 nM

What IC50 value was documented for this compound, C[C@H](Nc1cc(CN2C(=O)N(c3ccc(S(=O)(=O)C(F)(F)F)cc3)C(=O)C2(C)C)ccn1)[C@@H]1CCCO1 ? 500 to 2000 nM

Which IC50 value belongs to C[C@H]1CNc2nccc(CN3C(=O)N(c4ccc(C5(C(F)(F)F)CC5)cc4)C(=O)C3(C)C)c2O1 ? ≤ 500 nM

Endpoint output: IC50 of CC1(C)C(=O)N(c2ccc(C3(C(F)(F)F)CC3)cc2)C(=O)N1Cc1ccnc(NC2CCN(S(C)(=O)=O)C2)c1 (stereo not drawn) . Value? 500 to 2000 nM

Quick one: IC50 of CC1(C)C(=O)N(c2ccc3c(c2)N(S(C)(=O)=O)CC32CCC2)C(=O)N1Cc1ccnc(NC2CCOCC2)c1 ? ≤ 500 nM

IC50 for CC1(C)C(=O)N(c2ccc(SC(F)(F)F)cc2)C(=O)N1Cc1ccnc(N)c1C#N ? ≤ 500 nM

# lookup: IC50 of CC1(C)C(=O)N(c2ccc(C3(C(F)(F)F)CC3)cc2)C(=O)N1Cc1ccnc(NCc2ncc[nH]2)c1 ≤ 500 nM

Dear colleague, I am looking for the recorded IC50 of the following compound: CC(C)(C#N)c1ccc(N2C(=O)N(Cc3ccnc(NCC(F)F)c3)C(C)(C)C2=O)cc1 500 to 2000 nM

Quick one: IC50 for CC(C)Nc1cc(CN2C(=O)N(c3ccc(C4CC45CC5)cc3)C(=O)C2(C)C)ccn1 (stereo not drawn) ? ≤ 500 nM

What does the data say about its IC50? Entry: CC(C)(C)Cn1ccc(N2C(=O)N(Cc3ccnc4c3CC(=O)N4)C(C)(C)C2=O)cc1=O > 10000 nM

What measured IC50 goes with COCCOC[C@@H](C)Nc1cc(CN2C(=O)N(c3ccc4c(c3)N(S(C)(=O)=O)CC4(C)C)C(=O)C2(C)C)ccn1 ? ≤ 500 nM
